meta.source: patent US12371454B2

Provide the recorded IC50 for the entries that follow.
- SYSTEM: Kras and SOS1 (biotin-tagged human Kras loaded with GDP, His-tagged human SOS1) (Homo sapiens, UniProt P01116, G12D)
- Construct: made in house; host or cells: E. coli (stated for Kras only)
- Sequence (P01116 1-188 isoform P01116-2 G12D): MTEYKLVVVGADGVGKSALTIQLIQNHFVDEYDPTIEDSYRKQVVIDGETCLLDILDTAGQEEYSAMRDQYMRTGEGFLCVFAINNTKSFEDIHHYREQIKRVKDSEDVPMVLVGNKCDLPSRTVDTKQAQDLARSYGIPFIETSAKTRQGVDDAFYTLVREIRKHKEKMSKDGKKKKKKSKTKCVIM
- ASSAY PROCEDURE: Protein-protein interaction inhibition between Kras and SOS1 (KrasGl2D-SOS PPI) using AlphaScreen
- Type: binding
- PARTICULARS: AlphaScreen; biotin-tagged human Kras loaded with GDP, His-tagged human SOS1; read-out: KRAS G12D-SOS PPI IC50
- Description: Protein-Protein Interaction Inhibition Between Kras and SOS1 (KrasGl2D-SOS PPI) Using AlphaScreen Protein-protein interaction inhibition (PPI) between Kras and SOS1 was measured by energy transfer from nickel-conjugated donor beads to streptavidin-conjugated acceptor beads using biotin-tagged human Kras expressed in E. coli and loaded with GDP after purification and His-tagged human SOS1 enzyme. […]
Positions of bridges follow the written chain, without caps; N, C: chain ends. Non-standard residues stand in square brackets, D forms with d. Residues, ends and D or L forms follow the SMILES beside them. *: point of attachment. hPhe(3-Cl-4-CF3) = N[C@@H](CCc1ccc(C(F)(F)F)c(Cl)c1)C(=O)O; NMePhe(3-CF3) = CN[C@@H](Cc1cccc(C(F)(F)F)c1)C(=O)O; 3Oxa8azabicyclo(3.2.1)octane = C1CC2COCC1N2*; NMePhe(4-Cl) = CN[C@@H](Cc1ccc(Cl)cc1)C(=O)O; NMePhe(4-Me) = CN[C@@H](Cc1ccc(C)cc1)C(=O)O; Phe(3-I) = N[C@@H](Cc1cccc(I)c1)C(=O)O; NMeGly(cBu) = CN[C@H](C(=O)O)C1CCC1; NMeChg = CN[C@H](C(=O)O)C1CCCCC1; NMeD = CN[C@@H](CC(=O)O)C(=O)O; NMeL = CN[C@@H](CC(C)C)C(=O)O; Nle = CCCC[C@H](N)C(=O)O; Piperidide = C1CCN(*)CC1; Ac5c = NC1(C(=O)O)CCCC1; Sar = CNCC(=O)O
Value and unit, in that order.

MOLECULE | RESULT
CC[C@H](C)[C@@H]1NC(=O)[C@H](C2CCC2)N(C)C(=O)C[C@@H](C(=O)N2C3CCC2COC3)N(C)C(=O)[C@H](C2CCCCC2)N(C)C(=O)C2(CCCC2)NC(=O)[C@@H]2CCCN2C(=O)[C@H](CCc2ccc(C(F)(F)F)c(Cl)c2)NC(=O)CN(C)C(=O)[C@H](Cc2ccc(C)cc2)N(C)C(=O)CN(C)C(=O)CN(C)C1=O [Compound 353] ([NMeGly(cBu)]I[Sar][Sar][NMePhe(4-Me)][Sar][hPhe(3-Cl-4-CF3)]P[Ac5c][NMeChg][NMeD]-{3Oxa8azabicyclo(3.2.1)octane}; lactam N-11) | 0.00069 µM

Note: attention shifts to another entry.
Inquiry: # lookup: IC50 of CCCC[C@@H]1NC(=O)[C@H](Cc2cccc(I)c2)NC(=O)CN(C)C(=O)[C@H](Cc2ccc(Cl)cc2)N(C)C(=O)CN(C)C(=O)CN(C)C(=O)[C@H]([C@@H](C)CC)NC(=O)[C@H](CC(C)C)N(C)C(=O)C[C@@H](C(=O)N2CCCCC2)N(C)C(=O)[C@H](CC(C)C)NC(=O)[C@H](Cc2cccc(C(F)(F)F)c2)N(C)C1=O [Compound 1052] ([NMeL]I[Sar][Sar][NMePhe(4-Cl)][Sar][Phe(3-I)][Nle][NMePhe(3-CF3)]L[NMeD]-Piperidide; lactam N-11)
Reply text: 0.11 µM
